- measuredOn: T1, recombinant human tissue-type plasminogen activator (tPA) (human, UniProt P00750 36-562)
- T1 construct: Immobilized on ReactiGel agarose beads for the phage work; Used in solution for the column tests
- runDescription: phage display selection on tPA agarose beads, binding at pH 7
propertyName: binding result

Please review the entries below; each comes with its answer.
>>> valueobserved("RWCPKYTLECMKDSDCLAECVCLEHGYCGAGPSYIEGRIVGSA (designed binder, not shown: mature gene III protein of M13 phage) [CMTI-I analogue 233, phage isolate]")
"binds"
>>> valueobserved("RWCPKYTLECMKDSDCLAECVCLEHGYCGAGPSYIEGRIVGSA (designed binder, not shown: mature gene III protein of M13 phage) [CMTI-I analogue 228, phage isolate]")
"binds"
>>> valueobserved("RWCPKYTLECMKDSDCLAECVCLEHGYCGAGPSYIEGRIVGSA (designed binder, not shown: mature gene III protein of M13 phage) [CMTI-I analogue 223, phage isolate]")
"binds"
>>> valueobserved("RWCIRTDLGCMKDSDCLAECVCLEHGYCGAGPSYIEGRIVGSA (designed binder, not shown: mature gene III protein of M13 phage) [CMTI-I analogue 116, phage isolate]")
"binds"
>>> valueobserved("RWCPRSSLECMKDSDCLAECVCLEHGYCGAGPSYIEGRIVGSA (designed binder, not shown: mature gene III protein of M13 phage) [CMTI-I analogue 236, phage isolate]")
"binds"
>>> valueobserved("RWCPRSNLECMKDSDCLAECVCLEHGYCGAGPSYIEGRIVGSA (designed binder, not shown: mature gene III protein of M13 phage) [CMTI-I analogue 226, phage isolate]")
"binds"
>>> valueobserved("RWCPKTSLGCMKDSDCLAECVCLEHGYCGAGPSYIEGRIVGSA (designed binder, not shown: mature gene III protein of M13 phage) [CMTI-I analogue 117, phage isolate]")
"binds"
>>> valueobserved("RWCTKTSRECMKDSDCLAECVCLEHGYCGAGPSYIEGRIVGSA (designed binder, not shown: mature gene III protein of M13 phage) [CMTI-I analogue 115, phage isolate]")
"binds"
>>> valueobserved("RWCPRSSLECMKDSDCLAECVCLEHGYCGAGPSYIEGRIVGSA (designed binder, not shown: mature gene III protein of M13 phage) [CMTI-I analogue 234, phage isolate]")
"binds"
>>> valueobserved("RWCPKTSLGCMKDSDCLAECVCLEHGYCGAGPSYIEGRIVGSA (designed binder, not shown: mature gene III protein of M13 phage) [CMTI-I analogue 101, phage isolate]")
"binds"

// returns reported binding result for input RWCPKSTLGCMKDSDCLAECVCLEHGYCGAGPSYIEGRIVGSA (designed binder, not shown: mature gene III protein of M13 phage) [CMTI-I analogue 221, phage isolate]
binds

Which value of binding result has been reported for RWCPRTVRRCMKDSDCLAECVCLEHGYCGAGPSYIEGRIVGSA (designed binder, not shown: mature gene III protein of M13 phage) [CMTI-I analogue 118, phage isolate] in the records?
binds
